These data points were gathered from paper PMC4468408.

System: major human CYP isozymes
Test: CYP inhibition
Format: in vitro ADME
Conditions: human
pIC50: −log10 of the molar value.
MEASURED PARAMETER: pIC50

For the record "COc1cc(Nc2ncc3c(n2)-c2ccc(Cl)cc2C(c2c(F)cccc2OC)=NC3)ccc1C(=O)O" , what value of pIC50 is listed for major human CYP isozymes?
< 4.00
